Numbers sourced from the supplement of paper PMC10567573.

B1: LOC100129726 (parent)
chain: AKAADSPTRNDLESGLGHFSLRVH

Variants of: B1
Assay: protein stability index of a GFP-peptide fusion (GPS, HEK-293T) (PSI 1-6); higher = more stable;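 also: lentivirally expressed fusions sorted by FACS into six bins by GFP to DsRed ratio, PSI derived from sequencing read proportions per bin multiplied by bin number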
Conditions: c terminus: a fixed tail appended
We begin with a simple list: items and their reported protein stability index.

Quickly give me recorded protein stability index for `A4C`
3.05

Specify protein stability index for `S14W` and stop.
1.36

Look up protein stability index of `A4N` and report it.
3.04

Tell me its protein stability index given `F19V` as the entry.
3.58

Complete the entry with protein stability index for `R9P`
3.07

Return reported protein stability index. Input variant: `N10W`
1.88

Please give the documented protein stability index of `G17I`
2.28
